Assay read-out CC50; system under study: 293T cells.
Where a name gives a salt, the structure may show the parent alone.

Here is how some compounds turned out for CC50.
>>> df
                                   compound  measured_value
0  CC(CN1c2ccccc2S(=O)(=O)c2ccccc21)N(C)C.Cl (stereo not shown) [Dioxopromethazine hydrochloride]        > 200 µM
1  CCc1c2c(nc3ccc(OC(=O)N4CCC(N5CCCCC5)CC4)cc13)-c1cc3c(c(=O)n1C2)COC(=O)[C@]3(O)CC.Cl [Irinotecan hydrochloride]        > 200 µM

Input: Reported CC50, compound CCOC(=O)C1=C(COCCN)NC(C)=C(C(=O)OC)C1c1ccccc1Cl (stereo not shown) [Amlodipine maleate] : ____
Output: 34.9 µM

Input: Another compound: N.N.[Cl][Pt][Cl] [Cisplatin]
Output: > 200 µM

###

Parameter: log10(EC50). Scope: all listed entries.
tested on: pRABV (pseudovirus enveloped by the RABV glycoprotein G); test: microbe, parasite or virus in culture; assay type: cell-based, rabies virus; conditions: Pseudovirus, HEK-293T, 48 h, read-out: pRABV EC50
Structures can show the parent of a compound that is named as a salt.
Short version: log10 scale, EC50, µM.

>>> print(df.to_string())
                                   compound  measured_value
0  CC(C)/N=c1\cc2n(-c3ccc(Cl)cc3)c3ccccc3nc-2cc1Nc1ccc(Cl)cc1 [Clofazimine]            0.23
1  CN1CCC(=C2c3ccccc3CCc3sccc32)CC1 [Pizotifen]            0.49
2  CCOC(=O)C1=C(COCCN)NC(C)=C(C(=O)OC)C1c1ccccc1Cl (stereo not drawn) [Amlodipine besylate]            0.15
3  CCN(CC)Cc1cc(Nc2ccnc3cc(Cl)ccc23)ccc1O [Amodiaquine hydrochloride]            0.62
4  CCCCNc1ccc(C(=O)OCCN(C)C)cc1 [Tetracaine hydrochloride]            1.82

Proceed to the following item.
Input: Reported log10(EC50), compound CN1CCC(=C2c3ccccc3CC(=O)c3sccc32)CC1 [Ketotifen fumarate] : ____
Output: 1.03

###

Parameter: CC50. Scope: all listed entries.
experiment: in vitro; details: human
Counter-ions that a name gives are not always drawn.
Numeric only. Scale: µM

In [3]: df
Out[3]:
                                   compound  property_name  unit_spec  measured_value
0  CCN(CC)Cc1cc(Nc2ccnc3cc(Cl)ccc23)ccc1O [Amodiaquine hydrochloride]           CC50         µM            84.9
1  CCOC(=O)C1=C(COCCN)NC(C)=C(C(=O)OC)C1c1ccccc1Cl (stereo not shown) [Amlodipine besylate]           CC50         µM            36.3
2  CNCCCC12CCC(c3ccccc31)c1ccccc12 [Maprotiline hydrochloride]           CC50         µM              52

Input: Reported CC50, compound CN1CCC(=C2c3ccccc3CCc3sccc32)CC1 [Pizotifen] : ____
Output: 100

###

test: in vitro; conditions: cat
Parameter: CC50. Scope: all listed entries.
Numeric only. Scale: µM

Input: Reported CC50, molecule CC(C)N=c1cc2n(-c3ccc(Cl)cc3)c3ccccc3nc-2cc1Nc1ccc(Cl)cc1 : ____
Output: 670

Input: Another molecule: CC(C)/N=c1\cc2n(-c3ccc(Cl)cc3)c3ccccc3nc-2cc1Nc1ccc(Cl)cc1
Output: 144
